# Test system: A673 cells
# ASSAY_OVERVIEW: Cytotoxicity in A673 cells (Cell Titer Glo viability)
# Format: cell-based
# CONDITIONS_USED: Homo sapiens, A673; read-out: Cellular Potency IC50 (nM) (in A673 cells)
# label = Criterion met if IC50 < 20 nM else Criterion not met

**Query** Report whether reported IC50 is lower than 20 nM (strictly) for "O[C@H]1CNCC[C@@H]1CNc1cc(NCc2c(F)cc(-c3ccccc3)cc2F)n2ncc(C3CC3)c2n1"
**Result** Criterion not met

**Query** Note, next up: "Cc1nccn1-c1ccc(CNc2cc(NC[C@H]3CCNC[C@@H]3O)nc3c(C4CC4)cnn23)cc1"
**Result** Criterion not met

**Query** Note, next up: "CCc1cnn2c(NCc3ccc(-c4ccccn4)cc3)cc(NC[C@H]3CCNC[C@@H]3O)nc12"
**Result** Criterion met

**Query** Note, next up: CN(C)C/C=C/C(=O)Nc1ccc(C(=O)N2CCC[C@@H](Nc3ncc(Cl)c(-c4c[nH]c5ccccc45)n3)C2)cc1 [THZ-531, reference compound]
**Result** Criterion not met

**Query** Note, next up: "c1ccc(-c2ccc(CNc3cc(OCC4CNC4)nc4c(C5CC5)cnn34)cc2)nc1"
**Result** Criterion not met

**Query** Note, next up: "CC(C)c1cnn2c(NCc3ccc(-c4ncccc4F)cc3)cc(NC[C@H]3CCNC[C@@H]3O)nc12"
**Result** Criterion met

**Query** Note, next up: "N[C@H]1CC(=O)N(c2cc(NCc3ccc(-c4ccccn4)cc3)n3ncc(C4CC4)c3n2)C1"
**Result** Criterion not met

**Query** Note, next up: "CC(C)c1cnn2c(NCc3ccc(-c4cccnc4)cc3)cc(NC[C@H]3CCNC[C@@H]3O)nc12"
**Result** Criterion met

**Query** Note, next up: "O[C@H]1CNCC[C@@H]1CNc1cc(NCc2ccc(-c3ccccc3)cc2F)n2ncc(C3CC3)c2n1"
**Result** Criterion not met

* * *

# STUDY_TARGET: Human CDK7/CycH/MAT1 (Homo sapiens (Human))
# Sequence (P50613 whole entry): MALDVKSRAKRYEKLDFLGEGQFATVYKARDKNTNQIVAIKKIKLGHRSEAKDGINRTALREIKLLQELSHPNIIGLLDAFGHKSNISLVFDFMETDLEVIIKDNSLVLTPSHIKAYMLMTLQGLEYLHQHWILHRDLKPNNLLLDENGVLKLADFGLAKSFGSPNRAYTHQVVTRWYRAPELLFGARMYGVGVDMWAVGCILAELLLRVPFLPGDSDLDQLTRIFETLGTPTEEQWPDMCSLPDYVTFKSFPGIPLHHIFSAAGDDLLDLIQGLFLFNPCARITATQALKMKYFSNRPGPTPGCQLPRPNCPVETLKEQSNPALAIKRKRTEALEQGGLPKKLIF
# Sequence (P51946 whole entry partner): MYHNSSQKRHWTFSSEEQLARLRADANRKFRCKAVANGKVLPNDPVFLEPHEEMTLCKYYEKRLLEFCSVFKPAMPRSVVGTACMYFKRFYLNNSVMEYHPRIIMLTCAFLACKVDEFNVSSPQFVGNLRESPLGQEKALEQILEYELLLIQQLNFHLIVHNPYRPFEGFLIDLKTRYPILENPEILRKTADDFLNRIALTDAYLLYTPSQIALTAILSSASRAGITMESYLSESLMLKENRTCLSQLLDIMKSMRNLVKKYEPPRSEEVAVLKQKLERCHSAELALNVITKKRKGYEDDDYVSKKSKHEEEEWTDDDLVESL
# Sequence (P51948 whole entry partner): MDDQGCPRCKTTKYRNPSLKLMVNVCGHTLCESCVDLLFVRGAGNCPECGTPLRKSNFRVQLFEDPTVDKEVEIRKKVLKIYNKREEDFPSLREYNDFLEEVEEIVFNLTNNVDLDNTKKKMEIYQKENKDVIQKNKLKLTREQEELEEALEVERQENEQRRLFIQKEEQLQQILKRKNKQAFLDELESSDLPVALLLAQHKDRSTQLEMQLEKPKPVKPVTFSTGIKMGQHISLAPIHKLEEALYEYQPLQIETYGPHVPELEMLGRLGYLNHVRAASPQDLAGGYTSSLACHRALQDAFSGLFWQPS
# ASSAY_OVERVIEW: Radiometric protein kinase assay (33PanQinase Activity Assay), CDK7
# CONDITIONS_USED: ATP 3 μM
# Experimental: Additionally for the CDK7 assay: • Human CDK7/CycH/MAT1 (ProQinase, 0366-0360-4—Lot 2). • RBER-CHKtide (ProQinase, 0581-0000-5—Lot 106). A radiometric protein kinase assay (^33PanQinase® Activity Assay) was used for measuring the kinase activity of the two protein kinases (CDK12/CDK7). […] The reaction mixture was incubated at 30° C. for 60 min and then stopped by the addition of 2% (v/v) H3PO4. […] Incorporation of ^33Pi was determined with a microplate scintillation count (Microbeta, Wallac). […]
# label = 1.0 if IC50 < 300 nM else 0.0

**Query** Report whether reported IC50 is lower than 300 nM (strictly) for "c1ccc(-c2ccc(CNc3cc(-c4ccn[nH]4)nc4c(C5CC5)cnn34)cc2)nc1"
**Result** 0.0

**Query** Note, next up: "O[C@H]1CNCC[C@@H]1CNc1cc(NCc2ccc(-c3ncccc3OC(F)(F)F)cc2)n2ncc(C3CC3)c2n1"
**Result** 0.0

**Query** Note, next up: "O[C@H]1CNCC[C@@H]1CNc1cc(NCc2ccc(-c3ccccc3)cc2)n2ncc(C3CC3)c2n1"
**Result** 0.0

**Query** Note, next up: "O[C@H]1CNCC[C@@H]1CNc1cc(NCc2ccc(-c3ccc(F)cn3)cc2)n2ncc(C3CC3)c2n1"
**Result** 1.0

**Query** Note, next up: "c1ccc(-c2ccc(CNc3cc(C4CNC4)nc4c(C5CC5)cnn34)cc2)nc1"
**Result** 0.0

**Query** Note, next up: "c1cnc(-c2ccc(CNc3cc(N[C@H]4CCCNC4)nc4c(C5CC5)cnn34)cc2)nc1"
**Result** 1.0

**Query** Note, next up: "CC(C)c1cnn2c(NCc3ccc(-c4ccncc4)cc3)cc(NC[C@H]3CCNC[C@@H]3O)nc12"
**Result** 1.0

**Query** Note, next up: "c1ccc(-c2ccc(CNc3cc(N4CC5(CCNCC5)C4)nc4c(C5CC5)cnn34)cc2)nc1"
**Result** 0.0

**Query** Note, next up: "c1ccc(-c2ccc(CNc3cc(NC[C@H]4CNCCO4)nc4c(C5CC5)cnn34)cc2)nc1"
**Result** 0.0

# credit: patent US20240383900A1
